target: T1, human TROP2-his protein (human, UniProt P09758 27-274)
T1 construct: Biotin-labelled in the ELISAs, unlabelled analyte in Biacore; also called biotin-labeled human TROP2-his protein; biotin human Trop2-his
T1 sequence: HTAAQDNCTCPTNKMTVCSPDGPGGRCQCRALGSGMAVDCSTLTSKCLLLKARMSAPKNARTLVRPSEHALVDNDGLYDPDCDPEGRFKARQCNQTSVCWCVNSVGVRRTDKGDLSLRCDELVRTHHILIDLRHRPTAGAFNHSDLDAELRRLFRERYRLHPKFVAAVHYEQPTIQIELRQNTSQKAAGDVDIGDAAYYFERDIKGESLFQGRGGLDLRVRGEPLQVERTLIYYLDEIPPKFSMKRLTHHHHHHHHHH
test-summary: capture ELISA, antibody captured on anti-mouse IgG Fc coat, biotin human TROP2-his in solution, OD(450-630)
recorded-metric: pEC50
Numbers only, as −log10 of the molar value.

Use the examples below as a reference point.
mouse antibody A1E4F7D4 (antibody, V domains shown, Mouse monoclonal IgG purified from hybridoma supernatant; also called Mouse A1E4F7D4) VH: QVQLQQSGAELAKPGTSVKMSCEASGYSFTTHWIHWMKQRPGQGLEWIGTIFPSNAYAVYNQKFRDRAIMTADRSSTTAYIQLTGLTSEDSAVYYCARASYFDYWGQGTTLTVSS VL: DILLTQSPATLSVSPGERVTFSCRASQNIGTSIHWFQQRTTGSPRLLIKYASESISGIPSRFSGSGSGTDFTLHINSVESEDIAHYYCQHSHSWPFTFGSGTKLEIQ; 10.05
mouse antibody A1H3C5H8E12 (antibody, V domains shown, Mouse monoclonal IgG purified from hybridoma supernatant) VH: QVQLQQSGAELVRPGTSVKMSCKAAGYTFTNYWIDWVKQRPGHGLEWIGNIFPGGFYTNYNEKFKGKATLTADTSSSTAYMQLSSLTSEDSAIYYCARGGVFDYWGQGTTLTVSS VL: DILLTQSPAILSVSPGERVSFSCRASQSIGTSIHWYQQRTNGSPRLLIKYASESISGIPSRFSGSGSGTDFTLSINSVESEDIADYYCQQSNSWPYTFGGGTKLEIK; 9.52

For every item below, please supply its pEC50.
1. mouse antibody A1B12D2B4E7B3 (antibody, V domains shown, Mouse monoclonal IgG purified from hybridoma supernatant) VH: EVQLQQSGPELVKPGASVKMSCKASGFTFTDYYMNWVKQSHGKSLEWIGYIYPNHGGTGYNQKFKDKATLTVDKSSSTAYMELRSLTSDDSAVYYCARENYGYAMDYWGQGTSVTVSS VL: DVVMTQTPLSLPVSLGDQASISCRSSQSLVHGDGNTYLHWFLQKPGQSPKLLIYTVSNRFSGVPDRFSGSGSGTDFTLKINRVEAEDLGIYFCSQTTHVPTFGGGTKLEIK
2. mouse antibody B1G1F5A3 (antibody, V domains shown, Mouse monoclonal IgG purified from hybridoma supernatant) VH: EVQLQQSGPELVKPGTSVKMSCKASGYSFADYSMNWVRQSHGNSLEWIGYIYPNNGASGFNQKFKGKATLTVDKSSSTAYMELHSLTSEDSAVYYCAREQDNSGYCFDYWGQGTSLTVSS VL: DVVMTQTPLSLAVRLGDQASISCRSSLNLVHSNGNTFLHWYLQRPGQSPKLLIYKVSNRFSGVSDRFSGSGSGTDFTLKISRVEAEDLGVYFCSQTTHVPTFGGGTKLEIK
3. mouse antibody A1E11A12D1 (antibody, V domains shown, Mouse monoclonal IgG purified from hybridoma supernatant) VH: QVQLQQSGAELARPGASVKLSCMASGYTFTTYGISWVRQRTGQGLEWIGQIYPGSDYSYCDEDFKGKATLTADKSSSTAYMQLSSLTSEDSAVYFCARASYFDYWGQGTTLTVSS VL: DILLTQSPAILSVSPGERVSFSCRASQTIGTAIHWYQQRANGSPRLLIKYASESISGIPSRFSGSGSGTDFALSINTVESEDFAYYYCQQSNNWPFTFGGGTKLEIR
4. mouse antibody C1B3B12D2 (antibody, V domains shown, Mouse monoclonal IgG purified from hybridoma supernatant) VH: QVQLQQSGPELVRPGTSVKMSCKAAGYTFTKFWIGWVKQRPGHGLEWIGNIYPGGAYINYNENFKGKATLTADTFSSTAYMQLNSLTSADSAIYYCAREGSSGYWGQGTTLTVSS VL: DIVMTQSPSSLTVTAGEKVTLSCKCSQSLLNSGTQENYLTWYQQKPGQPPKMLIYWASIREPGVPDRFTGSGSGTDFTLTINNVQAEDLAVYYCQHDYSYPFTFGSGTKLEIK

[9.61, 9.48, 9.89, 9.97]
